Kindly supply the reported hERG current change (%, negative = inhibition) at 10uM values for the records listed here.
# test system: human ether-à-go-go-related gene (hERG) potassium channel (human);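 further: peak tail current of the secondary pulse compared with the same well before compound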
# Sequence (Q12809 whole entry, looked up): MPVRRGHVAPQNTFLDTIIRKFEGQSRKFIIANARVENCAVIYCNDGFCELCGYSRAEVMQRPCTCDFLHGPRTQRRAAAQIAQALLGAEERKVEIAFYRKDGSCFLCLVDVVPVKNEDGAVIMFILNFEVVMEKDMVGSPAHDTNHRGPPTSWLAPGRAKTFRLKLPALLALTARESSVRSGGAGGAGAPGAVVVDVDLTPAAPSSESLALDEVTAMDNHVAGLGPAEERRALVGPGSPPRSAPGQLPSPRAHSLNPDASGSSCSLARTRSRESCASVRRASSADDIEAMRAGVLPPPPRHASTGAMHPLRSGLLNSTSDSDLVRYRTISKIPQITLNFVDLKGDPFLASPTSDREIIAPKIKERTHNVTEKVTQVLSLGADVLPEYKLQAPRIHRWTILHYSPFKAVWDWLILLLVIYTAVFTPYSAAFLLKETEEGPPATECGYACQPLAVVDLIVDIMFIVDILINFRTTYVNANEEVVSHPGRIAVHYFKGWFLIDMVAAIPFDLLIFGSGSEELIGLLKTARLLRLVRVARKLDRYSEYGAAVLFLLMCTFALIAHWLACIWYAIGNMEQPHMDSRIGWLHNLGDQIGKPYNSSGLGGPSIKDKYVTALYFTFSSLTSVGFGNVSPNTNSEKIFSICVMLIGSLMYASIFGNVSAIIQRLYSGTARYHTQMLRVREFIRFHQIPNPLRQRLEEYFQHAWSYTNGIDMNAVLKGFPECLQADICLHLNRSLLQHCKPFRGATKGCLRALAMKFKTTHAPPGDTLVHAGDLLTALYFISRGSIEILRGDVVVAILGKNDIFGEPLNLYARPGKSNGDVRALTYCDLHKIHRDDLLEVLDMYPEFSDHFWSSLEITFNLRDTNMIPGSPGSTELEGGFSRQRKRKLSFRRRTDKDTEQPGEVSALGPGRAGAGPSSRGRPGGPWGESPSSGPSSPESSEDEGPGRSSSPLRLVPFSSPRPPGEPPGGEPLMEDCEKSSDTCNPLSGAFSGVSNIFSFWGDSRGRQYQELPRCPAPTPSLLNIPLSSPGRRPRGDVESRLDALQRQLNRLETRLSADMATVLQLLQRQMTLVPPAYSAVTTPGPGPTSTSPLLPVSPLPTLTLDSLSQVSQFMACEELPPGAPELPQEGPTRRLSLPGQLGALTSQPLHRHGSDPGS
# assay text: primary screen, population patch clamp on CHO cells stably expressing hERG; higher = less effect of the substance
In all, about 310,000 compounds went through this assay and about 14,000 (4.5%) showed an effect of 50% or more. Effects have a minus sign here. Only a selection was taken, and strong results are over-represented in it overall.

Summary for this molecule, "O=C(c1cc(C2CC2)nn1-c1ccccc1)N1CCN(Cc2ccc(Cl)cc2)CC1" : hERG current change (%, negative = inhibition) at 10uM is -32.1%

Summary for this molecule, "NC(=O)c1ccc(N=Cc2ccc([N+](=O)[O-])s2)cc1" : hERG current change (%, negative = inhibition) at 10uM is 8.6%

Summary for this molecule, "Cn1c(=O)n(C)c2cc([N+](=O)[O-])c(N3CCN(C(=O)c4ccc(Cl)cc4)CC3)cc21" : hERG current change (%, negative = inhibition) at 10uM is -65.9%

Summary for this molecule, "O=C(Nc1ccccc1Br)C(=O)N1CCCC1" : hERG current change (%, negative = inhibition) at 10uM is 3.44%

Summary for this molecule, "CCOc1ccc(-n2cc(-c3ccccc3)c3c(=O)[nH]cnc32)cc1" : hERG current change (%, negative = inhibition) at 10uM is 17.2%

Summary for this molecule, "Cn1c(=O)n(C)c2cc([N+](=O)[O-])c(N3CCN(C(=O)c4cccc(Cl)c4)CC3)cc21" : hERG current change (%, negative = inhibition) at 10uM is -64.2%

Summary for this molecule, O=C(CCc1cn2ccccc2n1)NC1CCCc2c1cnn2-c1ccccc1F (stereo not shown) : hERG current change (%, negative = inhibition) at 10uM is 0.178%

Summary for this molecule, "CCOC(=O)C(=O)N1CCN(c2cc3c(cc2[N+](=O)[O-])n(C)c(=O)n3C)CC1" : hERG current change (%, negative = inhibition) at 10uM is -24.2%

Summary for this molecule, "Cc1ccc(F)cc1NC(=O)c1ccc(NS(=O)(=O)c2ccc(Br)s2)cc1" : hERG current change (%, negative = inhibition) at 10uM is -70%

Summary for this molecule, "Cn1c(=O)n(C)c2cc(N3CCCCC3)c(NC(=O)c3cccc(Cl)c3)cc21" : hERG current change (%, negative = inhibition) at 10uM is 14.8%

Summary for this molecule, "Cc1cccc(NC(=O)CN2C(=O)S/C(=C\c3ccccn3)C2=O)c1" : hERG current change (%, negative = inhibition) at 10uM is 30.2%

Summary for this molecule, CC1CCC(NC(=O)c2cc(C3CC3)nn2-c2ccccc2)CC1 (stereo not shown) : hERG current change (%, negative = inhibition) at 10uM is -34.9%

Summary for this molecule, "N#Cc1ccc(CN2CCN(C(=O)c3cc(C4CC4)nn3-c3ccccc3)CC2)cc1" : hERG current change (%, negative = inhibition) at 10uM is -57.2%

Summary for this molecule, COC(=O)CCCC(=O)N1CCCC(CCC(=O)NCc2ccc(F)c(F)c2)C1 (stereo not shown) : hERG current change (%, negative = inhibition) at 10uM is 0.17%

Summary for this molecule, "Cn1c(=O)n(C)c2cc([N+](=O)[O-])c(N3CCN(C(=O)c4ccc(F)cc4)CC3)cc21" : hERG current change (%, negative = inhibition) at 10uM is -44%

Summary for this molecule, "Cn1c(=O)n(C)c2cc([N+](=O)[O-])c(N3CCNCC3)cc21" : hERG current change (%, negative = inhibition) at 10uM is 5.58%

Summary for this molecule, "Cn1c(=O)n(C)c2cc([N+](=O)[O-])c(N3CCN(C(=O)c4ccccc4)CC3)cc21" : hERG current change (%, negative = inhibition) at 10uM is -36.1%

Summary for this molecule, "O=C(CSc1nnc(-c2ccccc2)n1-c1ccccc1)c1ccc[nH]1" : hERG current change (%, negative = inhibition) at 10uM is 16.4%

Summary for this molecule, CC(C)(C)n1nnnc1C(c1ccc(Cl)cc1)N(Cc1cccnc1)Cc1ccco1 (stereo not shown) : hERG current change (%, negative = inhibition) at 10uM is -14.7%

Summary for this molecule, "CCn1c(-c2c(Cl)c(C)nn2C)n[nH]c1=S" : hERG current change (%, negative = inhibition) at 10uM is 10.9%

Summary for this molecule, CN1C2CCC1CC(NC(=O)c1ccc(Cl)cc1)C2 (stereo not shown) : hERG current change (%, negative = inhibition) at 10uM is 7.55%

Summary for this molecule, "COc1ccc(CN2CCN(C(=O)c3cc(C4CC4)nn3-c3ccccc3)CC2)cc1F" : hERG current change (%, negative = inhibition) at 10uM is -48.6%

Summary for this molecule, "Cc1ccc(Nc2nc(CSc3nnnn3-c3ccccc3)cs2)cc1" : hERG current change (%, negative = inhibition) at 10uM is 14.7%

Summary for this molecule, CCC(C)(C)NC(=O)C(c1ccc(OC)cc1)N(CCOC)C(=O)CCC(=O)Nc1nccs1 (stereo not shown) : hERG current change (%, negative = inhibition) at 10uM is 0.428%

Summary for this molecule, "Cc1cc(SCC(=O)OCC(=O)N(C)c2ccccc2)nc2ccccc12" : hERG current change (%, negative = inhibition) at 10uM is -22.8%

Summary for this molecule, "Cn1c(=O)n(C)c2cc([N+](=O)[O-])c(N3CCN(C(=O)C(C)(C)C)CC3)cc21" : hERG current change (%, negative = inhibition) at 10uM is -8.56%

Summary for this molecule, Cc1cc(C)cc(C(=O)N(CCc2ccccc2)C2CC3CCC(C2)N3C)c1.Cl (stereo not shown) : hERG current change (%, negative = inhibition) at 10uM is -56.5%

Summary for this molecule, CC(C)=CCN1CCN(Cc2cn(C(C)C)c3ccccc23)CC1CCO (stereo not shown) : hERG current change (%, negative = inhibition) at 10uM is -10.5%

Summary for this molecule, O=C(C1CCCO1)N1CCN(C(=S)NC2CC2)CC1 (stereo not shown) : hERG current change (%, negative = inhibition) at 10uM is 23%

Summary for this molecule, "O=[N+]([O-])c1ccc(-[n+]2c(-c3ccccc3)cc(-c3ccccc3)cc2-c2ccccc2)cc1.[O-][Cl+3]([O-])([O-])[O-]" : hERG current change (%, negative = inhibition) at 10uM is 4.73%

Summary for this molecule, "Cn1c(=O)n(C)c2cc([N+](=O)[O-])c(N3CCN(C(=O)c4ccccc4Br)CC3)cc21" : hERG current change (%, negative = inhibition) at 10uM is -70.6%

Summary for this molecule, "NCCNc1ccc([N+](=O)[O-])c2cccnc12" : hERG current change (%, negative = inhibition) at 10uM is 1.29%

Summary for this molecule, O=C(Nc1ccc(Cl)cc1)C(Cl)C(=O)c1ccccc1 (stereo not shown) : hERG current change (%, negative = inhibition) at 10uM is -3.81%

Summary for this molecule, "CC(C)C(=O)NNS(=O)(=O)c1ccccc1[N+](=O)[O-]" : hERG current change (%, negative = inhibition) at 10uM is 3.1%
